TARGET: T1, Human ST2 (human, UniProt Q01638 19-328, limits assumed)
T1 construct: also called human ST2 protein; Interleukin 1 receptor-like 1
T1 sequence (looked up): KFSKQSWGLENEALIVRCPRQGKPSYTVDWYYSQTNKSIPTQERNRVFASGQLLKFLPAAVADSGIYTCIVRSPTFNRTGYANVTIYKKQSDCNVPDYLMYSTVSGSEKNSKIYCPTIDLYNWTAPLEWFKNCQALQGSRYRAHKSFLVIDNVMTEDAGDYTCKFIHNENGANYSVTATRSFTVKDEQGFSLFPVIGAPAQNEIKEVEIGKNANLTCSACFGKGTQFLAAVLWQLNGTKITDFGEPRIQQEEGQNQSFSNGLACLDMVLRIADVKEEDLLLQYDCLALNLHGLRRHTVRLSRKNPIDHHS
EXPERIMENT NOTES: SPR (Carterra), antibody immobilized, ST2 analyte
MEASUREMENT KIND: Kd (nM)
Lab book: enter the figure in nM, no units written.

INSERT INTO measurements (binder, measurement_kind, units_of_measure, numeric_readout) VALUES
  ('Human ST2 IgG1 Antibody 70 (antibody, V domains shown, IgG1; also called ST2 Antibody 70) VH: QVQLVQSGAEVKKPGSSVKVSCKASGYAFTDYFIHWVRQAPGQGLEWMGGIIPIFGTANYAQKFQGRVTITADKSTSTAYMELSSLRSEDTAVYYCARVAYGAFDIWGQGTMVTVSS VL: EIVMTQSPATLSVSPGERATLSCRASQSVSSSYLAWYQQKPGQAPRLLIYGASTRATGIPARFSGSGSGTEFTLTISSLQSEDFAVYYCQQYNNWPLTFGGGTKVEIKR', 'Kd', 'nM', 268);

Please look up its Kd: Human ST2 IgG1 Antibody 56 (antibody, V domains shown, IgG1; also called ST2 Antibody 56) VH: EVQLLESGGGLVKPGGSLRLSCAASGFTFSSYAMSWVRQAPGKGLEWVSSISSDSYYKYHADSVKGRFTISRDDSKNTLYLQMNSLKTEDTAVYYCAKGADYDFWSGYLDYWGQGTLVTVSS VL: DIQMTQSPSSLSASVGDRVTITCRASQGISSYLAWYQQKPGKAPKLLIYRASTLQSGVPSRFSGSGSGTDFTLTISSLQPEDFATYYCQQSYNTPWTFGQSTKVEIKR
970

Please look up its Kd: Human ST2 IgG1 Antibody 25 (antibody, V domains shown, IgG1; also called ST2 Antibody 25) VH: QVQLVQSGAEVKKPGSSVKVSCKASGGTFSNYAISWVRQAPGQGLEWMGWISAYNGNTNYAQKFQGRVTMTRDTSTSTVYMELSSLRSEDTAVYYCARSTNALDYWGQGTLVTVSS VL: DIQMTQSPSSLSASVGDRVTITCRASQGIRSNLDWYQQKPGKAPKLLISIVSNLGSGVPSRFSGSGSGTDFTLTISSLQPEDFATYYCLQHNSNPPTFGGGTKVEIKR
193

Please look up its Kd: Human ST2 IgG1 Antibody 95 (antibody, V domains shown, IgG1; also called ST2 Antibody 95) VH: QVQLVQSGAEVKKPGSSVKVSCKASGYTFTSYGISWVRQAPGQGLEWMGGIIPIFGTANYAQKFQGRVTITADESTSTAYMELSSLRSEDTAVYYCARVMARRDGYNFKGGWYFDLWGRGTLVTVSS VL: DIVMTQSPLSLPVTPGEPASISCRSSQSLLHSNGYNYLDWYLQKPGQSPQLLIYAASSLQSGVPDRFSGSGSGTDFTLKISRVEAEDVGVYYCMQALETPPTFGQGTKLEIKR
446

Please look up its Kd: Human ST2 IgG1 Antibody 17 (antibody, V domains shown, IgG1; also called ST2 Antibody 17) VH: QVQLVQSGAEVKKPGASVKVSCKASGYTFTDSFMFWVRQAPGQGLEWVGLINPGTGATIFAQKFQGRVTMTRDTSTSTVYMELSSLRSEDTAVYYCARSSDYDSSDYWGQGTLVTVSS VL: DIQMTQSPSSLSASVGDRVTITCRASQSISTWLAWYQQKPGKAPKLLIYGASSLQSGVPSRFSGSGSGTDFTLTISSLQPEDFATYYCQQSYNSPYTFGQGTKVEIKR
433

Please look up its Kd: Human ST2 IgG1 Antibody 63 (antibody, V domains shown, IgG1; also called ST2 Antibody 63) VH: QVQLVQSGAEVKKPGSSVKVSCKASGGTFSSDAINWVRQAPGQGLEWMGGIVPAFGTANYAQKFQGRVTITADESTSTAYMELSSLRSEDTAVYYCARSSSSWPYYYYYMDVWGKGTTVTVSS VL: DIVMTQSPLSLPVTPGEPASISCRSSQSLLLNNGNNFIDWYLQKPGQSPQLLIYAASILQGGVPDRFSGSGSGTDFTLKISRVEAEDVGVYYCMQALQTPPTFGQGTKVEIKR
96

Please look up its Kd: Human ST2 IgG1 Antibody 11 (antibody, V domains shown, IgG1; also called ST2 Antibody 11) VH: QVQLVQSGAEVKKPGASVKVSCKASGGTFSSYAISWVRQAPGQGLEWMGWINPNSGGTNYAQKFQGRVTMTRDTSTSTVYMELSSLRSEDTAVYYCAMDTNYYYGMDVWGQGTTVTVSS VL: DIQMTQSPSSLSASVGDRVTITCQASEDIANNLNWYQQKPGKAPKLLIYAASSLQSGVPSRFSGSGSGTDFTLTISSLQPEDFATYYCQQGYNIPFTFGQGTKLEIKR
25
